Target: T1, cynomolgus monkey CD8 alpha on primary cynomolgus CD8+ T cells (cynomolgus monkey, UniProt P01732 23-235 (human entry))
T1 construct: also called Cyno CD8alpha; cyno CD8A
T1 sequence (P01732 other isoform, or with tags, fused parts or gaps limits assumed): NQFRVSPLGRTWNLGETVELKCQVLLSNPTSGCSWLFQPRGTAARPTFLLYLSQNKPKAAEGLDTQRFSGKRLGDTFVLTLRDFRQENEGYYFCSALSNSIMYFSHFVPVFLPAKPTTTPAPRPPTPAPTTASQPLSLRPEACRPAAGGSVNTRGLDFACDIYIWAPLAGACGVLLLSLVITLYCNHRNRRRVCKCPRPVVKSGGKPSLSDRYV
Assay: flow cytometry, cyno CD8+ T cells
quantity: Cyno T-cell Binding 2 uM (MFI)

Some entries whose results are on file:
INSERT INTO assay_data (binder, quantity, recorded_result) VALUES
  ('P283FR9P1366_H7 (designed binder, FN3 domain) LPAPKNLVVSRVTEDSARLSWTAPDAAFDSFQIAYPEYPALGEAIVLTVPGSERSYDLTGLKPGTEYFVIIAGVKGGIQSWPLSAIFTT', 'Cyno T-cell Binding 2 uM (MFI)', 24400),
  ('P283HR7P1368_F10 (designed binder, FN3 domain) LPAPKNLVVSRVTEDSARLSWTAPDAAFDSFYIPYRESEFRGEAIALPVPGSERSYDLTGLKPGTKYRVIIIGVKGGEFSQPLGAIFTT', 'Cyno T-cell Binding 2 uM (MFI)', 16100),
  ('P283ER9P1365_A1 (designed binder, FN3 domain) LPAPKNLVVSRVTEDSARLSWTAPDAAFDSFGIAYVEWWHRGEAISLPVPGSERSYDLTGLKPGTEYNVIITGVKGGIPSHPLGAIFTT', 'Cyno T-cell Binding 2 uM (MFI)', 9680),
  ('P283DR9P1364_G9 (designed binder, FN3 domain) LPAPKNLVVSRVTEDSARLSWTAPDAAFDSFGIWYPEWPVGGEAIVLTVPGSERSYDLTGLKPGTEYWVNISGVKGGEYSFPLSAIFTT', 'Cyno T-cell Binding 2 uM (MFI)', 47100),
  ('P283FR9P1366_D6 (designed binder, FN3 domain) LPAPKNLVVSRVTEDSARLSWTAPDAAFDSFNIFYPELVFPGEAIVLTVPGSERSYDLTGLKPGTEYWVNISGVKGGEHSWPLSAIFTT', 'Cyno T-cell Binding 2 uM (MFI)', 79600);

1: P283FR9P1366_G1 (designed binder, FN3 domain) LPAPKNLVVSRVTEDSARLSWTAPDAAFDSFYISYPELPVEGEAIVLTVPGSERSYDLTGLKPGTEYWVIIWGVKGGATSEPLSAIFTT
2: P283HR7P1368_G11 (designed binder, FN3 domain) LPAPKNLVVSRVTEDSARLSWTAPDAAFDSFGIGYAEPAVTGEAISLSVPGSERSYDLTGLKPGTEYWVVIIGVKGGINSYPLGASFTT
Which shows the larger Cyno T-cell Binding 2 uM (MFI) value: 1 or 2 ? Indicate which entry you chose by stating its label.
1

P: P283DR9P1364_D8 (designed binder, FN3 domain) LPAPKNLVVSRVTEDSARLSWTAPDAAFDSFQIAYPETPIQGEAIVLTVPGSERSYDLTGLKPGTEYFVIIHGVKGGITSFPLSAIFTT
Q: P283FR9P1366_F8 (designed binder, FN3 domain) LPAPKNLVVSRVTEDSARLSWTAPDAAFDSFAIAYPEIAKWGEAIVLTVPGSERSYDLTGLKPGTEYFVIIYGVKGGVHSFPLSAIFTT
Select one. Lower Cyno T-cell Binding 2 uM (MFI): P or Q Indicate which entry you chose by stating its label.
P
(P: 2480 MFI, Q: 27000 MFI)
